test system: Leptosphaeria nodorum (LEPTNO); experiment: In vitro fungitoxicity of hydrazones with and without copper towards Leptosphaeria nodorum (Example 26); type: cell-based; conditions: copper-plus medium (CuCl2 10 μM); test compound Concn. 0.05 μg/mL; 72 h at 25° C.
property.name: LEPTNO % Inhn. Plus Copper Observed
Remember to quote the unit after the number.

These recorded examples may help you get a feel for the data.
O=C(N/N=C/c1ccc(Cl)cc1O)c1cccc(Cl)c1; 96.9%
O=C(N/N=C/c1ccc(Cl)cc1O)c1cccc(F)c1; 97.6%
C/C(=N\NC(=O)c1cccc(C)c1)c1cccc(Cl)c1O; 97.7%
O=C(N/N=C/c1ccc(Cl)cc1O)c1cccc([N+](=O)[O-])c1; 96.1%
COc1ccc(/C(C)=N/NC(=O)c2ccccc2)c(O)c1OC; 96.0%

Let's switch to this compound now.
Please provide the recorded LEPTNO % Inhn. Plus Copper Observed for O=C(N/N=C/c1cc(C(F)(F)F)ccc1O)c1ccccc1C(F)(F)F , tested on Leptosphaeria nodorum (LEPTNO).
100.0%
